- tgt: T1, human CD200R1 expressed on cells (Jurkat-CD200R1, U937-CD200R1, HH cells) (human, UniProt Q8TD46 25-348)
- T1 construct: whole, on cells; also called HH (CRL-2105); cell surface-expressed CD200R1
- T1 sequence (looked up): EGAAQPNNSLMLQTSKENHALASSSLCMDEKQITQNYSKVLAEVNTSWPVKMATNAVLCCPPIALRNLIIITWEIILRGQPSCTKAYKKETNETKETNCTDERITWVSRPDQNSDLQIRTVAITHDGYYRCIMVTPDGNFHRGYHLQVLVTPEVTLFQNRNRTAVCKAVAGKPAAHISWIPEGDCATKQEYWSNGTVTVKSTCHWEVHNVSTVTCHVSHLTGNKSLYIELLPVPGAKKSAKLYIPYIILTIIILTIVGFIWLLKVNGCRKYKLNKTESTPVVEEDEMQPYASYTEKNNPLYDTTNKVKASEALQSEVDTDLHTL
- method: flow cytometry, HH cells; drawn table
measurement.label: Geo mean (%) at 50 nM
State the value, then name its unit.

Note down Geo mean (%) at 50 nM recorded for P001018 scFv mutant L3-L94H (scFv) scFv: QVQLVQSGAEVKKPGASVKVSCKASGYTFTSYVMHWVRQAPGQGLEWMGYINPYNDDTNYNEKFKGRVTMTRDTSTSTVYMELSSLRSEDTAVYYCAREDYYGSRWGYWGQGTLVTVSSGGGGSGGGGSGGGGSDIVLTQSPASLAVSPGQRATITCRASKSVSTSGYSYMHWYQQKPGQPPKLLIYLASNLESGVPARFSGSGSGTDFTLTINPVEANDTANYYCQHSREHLTFGQGTKVEIK
75.2%

Source listed as patent US20260263521A1.
